# test_name: NCI Yeast Anticancer Drug Screen. Data for the rad50EPP+ strain (AID 151);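 also: 0% = growth of vehicle-treated control cultures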
# condition_parameters: S. cerevisiae rad50 mutant strain, at 11.0 µM
About 79,000 compounds went through this panel and 15% of them were active in at least one assay; those are over-represented in the sample as a whole. Activity calls are given as the source filed them. Rule as the data show it: active = growth inhibition above about 70%; inactive = the rest.
Outcomes: 1 (active), 0 (inactive)

>>> df
                                   compound  class
0  CCCCCCCCCCCCCCCCCCNC(=S)/N=C/c1c(O)c2ccccc2[nH]c1=O      0
1             COC(=O)/C(C#N)=C\NC(=S)C(N)=S      0
2  CC(=O)/C(=C\c1ccc(Cl)c(Cl)c1)C(=O)C(C)CN(C)C (stereo unspecified)      0
3               O=S(=O)(NNc1ccccc1)c1ccccc1      0
4  CC(=O)O/N=C1C=C/C(=C(/C#N)c2ccccc2)C=C/1C      1
5     BrC1C2CCC3OC3C12 (stereo unspecified)      1

---

# test_name: NCI Yeast Anticancer Drug Screen. Data for the rad50 strain (AID 155);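 also: 0% = growth of vehicle-only cultures of the same strain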
# condition_parameters: S. cerevisiae rad50 strain growth inhibition; at 100.0 µM; hits give high values
About 79,000 compounds went through this panel and 15% of them were active in at least one assay; those are over-represented in the sample as a whole.
Listed molecules paired with reported growth inhibition
property_name: growth inhibition (%)

>>> df
                                    molecule  val
 0                  CC(C)C(c1ccccc1)c1ccccc1   93
 1  CCOP(=O)(OCC)/C(C#N)=C/c1ccc(-c2ccc(F)cc2F)o1    5
 2  COc1ccc2nc3cccc([N+](=O)[O-])c3c(NCCNCCO)c2c1   95
 3                 Brc1ccc(B2Nc3ccccc3N2)cc1   54
 4  c1cc(-c2sc(-c3ccncc3)c(-c3ccncc3)c2-c2ccncc2)ccn1   96
 5          O=c1c2ccccc2nc(-c2ccc(Cl)cc2)n1O   95
 6  O=C1C(CCSc2ccccc2)C(=O)N(c2ccccc2)C1c1ccccc1 (stereo not given)   89
 7        CC(C)(N=Nc1ccc(Cl)cc1)[N+](=O)[O-]   98
 8  Nc1ccc(S(=O)(=O)Nc2nc3c(c(=O)[nH]2)CCCC3)cc1   99
 9               CCCCCCC=C(C(=O)OCC)C(=O)OCC   22
10  O=C1c2cccc3cccc(c23)C(=O)N1CCNCCN1C(=O)c2cccc3cccc(c23)C1=O   53
11  Cc1cccc(C)c1NC(=O)C(C#N)C1=C(Cl)C(=O)c2ccccc2C1=O (stereo not given)   96
12              COc1ccccc1NC(=O)c1ccc(Cl)cc1    8
13                  OB(O)c1ccccc1C#Cc1ccccc1   43
14  NC(CCCCCCCCCCCCC(N)C(=O)c1ccccc1)C(=O)c1ccccc1 (stereo not given)   93
15    O=C1SS(=O)c2ccccc21 (stereo not given)   79
16  COc1cccc(C(NC2=NCCC=N2)c2cc3c(cc2O)OCO3)c1O (stereo not given)   39
17            COC(=O)C(=O)CC(=O)c1cccc(OC)c1   44
18  COC(=O)C1CCCCC1C(=O)Nc1ccccc1 (stereo not given)   -3
19  COc1ccc2cc3c4cc5c(cc4cc[n+]3cc2c1OC)OCO5   97
20      CC1=COC2=C(C)C(=O)C(=O)c3c(C)ccc1c32   93
21                         CCCCCCCCNCCCCCCCC   98
22  C/C(=N\OCC(O)CNCCSCc1ccccc1)c1ccccc1Cl (stereo not given)   95
23  CC12CCC(CC(=O)/C1=C(/Br)I)C2(C)C (stereo not given)    5
24  O=[N+]([O-])c1cccc2nc3ccccc3c(NCCCN3CCCCC3)c12   97
